# TEST_METHOD_NOTES: Chronic toxicity in female Crl:CD1(ICR) mouse assessed as NOAEL administered for 6 months
# CONDITION_SET: in vivo
QUANTITY: NOAEL at 6 months (mg/kg)
Numbers only; they are read as mg/kg.

(Q) Form field: reported NOAEL at 6 months of Cn1nccc1[C@H]1CCCC[C@@H]1Oc1cc(F)c(S(=O)(=O)Nc2ccncn2)cc1Cl
(A) 1000

###

# TEST_METHOD_NOTES: AUC (infinity) in Sprague-Dawley rat at 1 mg/kg, iv or po by LC-MS/MS analysis
# Assay type: ADME, organism-based
# CONDITION_SET: in vivo
QUANTITY: AUC(0-inf) (nM·h)
API: value field is a number in nM·h; no unit string.

(Q) For Cn1nccc1[C@H]1CCCC[C@@H]1Oc1cc(F)c(S(=O)(=O)Nc2ccncn2)cc1Cl , what is its reported AUC(0-inf)?
(A) 103

###

# TEST_METHOD_NOTES: Stability of the compound in human liver microsomes assessed as parent compound remaining measured after 0.5 hrs
# Assay type: ADME, Microsome
# CONDITION_SET: read-out: Stability
QUANTITY: remaining at 0.5 h (%)
Number only, in %; omit the unit.

(Q) Please report the recorded remaining at 0.5 h for Cn1nccc1[C@H]1CCCC[C@@H]1Oc1cc(F)c(S(=O)(=O)Nc2ccncn2)cc1Cl .
(A) 66

###

# TEST_METHOD_NOTES: Volume of distribution at steady state in Sprague-Dawley rat at 1 mg/kg, iv by LC-MS/MS analysis
# Format: ADME, organism-based
# CONDITION_SET: in vivo, read-out: Vdss
QUANTITY: Vd

(Q) May I ask what Vd has been recorded for Cn1nccc1[C@H]1CCCC[C@@H]1Oc1cc(F)c(S(=O)(=O)Nc2ccncn2)cc1Cl ?
(A) 1.2 L/kg

###

# TEST_METHOD_NOTES: Half life in ddy mouse at 3 mg/kg, iv or po by LC-MS/MS analysis
# Format: ADME, organism-based
# CONDITION_SET: in vivo
QUANTITY: half-life (h)
Just the number in h, nothing appended.

(Q) Quick check: half-life of Cn1nccc1[C@H]1CCCC[C@@H]1Oc1cc(F)c(S(=O)(=O)Nc2ccncn2)cc1Cl ?
(A) 1.54

###

# TEST_METHOD_NOTES: Stability of the compound in rat liver microsomes assessed as parent compound remaining measured after 0.5 hrs
# Type: ADME, Microsome
# CONDITION_SET: read-out: Stability
QUANTITY: remaining at 0.5 h (%)
Supply the numeric figure in %, leaving out any unit text.

(Q) May I ask what remaining at 0.5 h has been recorded for Cn1nccc1[C@H]1CCCC[C@@H]1Oc1cc(F)c(S(=O)(=O)Nc2ccncn2)cc1Cl ?
(A) 94

###

Record form. Attribute: remaining at 0.5 h. Fill in for each entry.
# TEST_METHOD_NOTES: Stability of the compound in mouse liver microsomes assessed as parent compound remaining measured after 0.5 hrs
# Format: ADME, Microsome
# CONDITION_SET: mouse liver microsomes, read-out: Stability
Only the number, expressed in %, is required.

(Q) // query remaining at 0.5 h value for entry Cn1nccc1[C@H]1CCCCC[C@@H]1Oc1cc(F)c(S(=O)(=O)Nc2ccncn2)c(F)c1 (racemic)
(A) 97

(Q) Next entry: Cn1nccc1[C@H]1CCC[C@@H]1Oc1cc(F)c(S(=O)(=O)Nc2ccncn2)c(F)c1 (racemic)
(A) 80

(Q) Lookup Cc1cc(S(=O)(=O)Nc2ccncn2)c(F)cc1O[C@H]1CCC[C@@H]1c1ccnn1C (racemic)
(A) 87

(Q) Next entry: Cc1nsc(NS(=O)(=O)c2cc(F)c(O[C@H]3CCC[C@@H]3c3ccnn3C)cc2F)n1 (racemic)
(A) 69

(Q) Subsequent entry: Cn1nccc1[C@H]1CCC[C@@H]1Oc1cc(F)c(S(=O)(=O)Nc2ccncn2)cc1F (racemic)
(A) 100

(Q) Next entry: Cn1nccc1[C@H]1CCCC[C@@H]1Oc1cc(F)c(S(=O)(=O)Nc2cscn2)cc1F (racemic)
(A) 28

###

# TEST_METHOD_NOTES: Chronic toxicity in female cynomolgus monkey assessed as NOAEL administered for 9 months
# Design: species or system Macaca fascicularis
# CONDITION_SET: in vivo
QUANTITY: NOAEL at 9 months
Could you kindly put the unit after your number?

(Q) Tell me the measured NOAEL at 9 months of Cn1nccc1[C@H]1CCCC[C@@H]1Oc1cc(F)c(S(=O)(=O)Nc2ccncn2)cc1Cl [DS-1971] , please.
(A) 1000 mg/kg

###

# TEST_METHOD_NOTES: Tmax in male cynomolgus monkey at 1000 mg/kg administered for 9 months measured 24 hrs post last dose with 1 month recovery
# Type: ADME, organism-based, Macaca fascicularis
# CONDITION_SET: in vivo
QUANTITY: Tmax (h)
Express the result in h but write the number alone.

(Q) Report Tmax for Cn1nccc1[C@H]1CCCC[C@@H]1Oc1cc(F)c(S(=O)(=O)Nc2ccncn2)cc1Cl please.
(A) 1.2

###

# TEST_METHOD_NOTES: Chronic toxicity in male cynomolgus monkey assessed as NOAEL administered for 9 months
# Parameters: species or system Macaca fascicularis
# CONDITION_SET: in vivo
QUANTITY: NOAEL at 9 months (mg/kg)
Give the number; mg/kg is assumed, so skip it.

(Q) Need NOAEL at 9 months, item Cn1nccc1[C@H]1CCCC[C@@H]1Oc1cc(F)c(S(=O)(=O)Nc2ccncn2)cc1Cl
(A) 1000

###

# TEST_METHOD_NOTES: Oral bioavailability in Beagle dog at 1 mg/kg by LC-MS/MS analysis
# Assay type: ADME, organism-based, Canis lupus familiaris
# CONDITION_SET: in vivo
QUANTITY: bioavailability (%)
Express it in %; write the number only.

(Q) Which bioavailability value is on record for Cn1nccc1[C@H]1CCCC[C@@H]1Oc1cc(F)c(S(=O)(=O)Nc2ccncn2)cc1Cl [DS-1971] ?
(A) 77

###

# TEST_METHOD_NOTES: Oral bioavailability in cynomolgus monkey at 1 mg/kg by LC-MS/MS analysis
# Assay type: ADME, organism-based, Macaca fascicularis
# CONDITION_SET: in vivo
QUANTITY: bioavailability (%)
API: value field is a number in %; no unit string.

(Q) State the recorded bioavailability for this entry: Cn1nccc1[C@H]1CCCC[C@@H]1Oc1cc(F)c(S(=O)(=O)Nc2ccncn2)cc1Cl
(A) 35

###

# TEST_METHOD_NOTES: Cmax in female Crl:CD1(ICR) mouse at 1000 mg/kg administered for 6 months measured 24 hrs post last dose with 1 month recovery
# Assay type: ADME, organism-based
# Parameters: dose 1000 mg/kg
# CONDITION_SET: in vivo
QUANTITY: Cmax (µM)
Numbers only here, please. The scale is µM.

(Q) Which measured Cmax value corresponds to Cn1nccc1[C@H]1CCCC[C@@H]1Oc1cc(F)c(S(=O)(=O)Nc2ccncn2)cc1Cl ?
(A) 105

###

# TEST_METHOD_NOTES: Stability of the compound in dog liver microsomes assessed as parent compound remaining measured after 0.5 hrs
# Format: ADME, Canis lupus familiaris, Microsome
# CONDITION_SET: read-out: Stability
QUANTITY: remaining at 0.5 h (%)
# number only, unit % dropped from output

(Q) Could you tell me which remaining at 0.5 h is on file for Cn1nccc1[C@H]1CCCC[C@@H]1Oc1cc(F)c(S(=O)(=O)Nc2ccncn2)cc1Cl [DS-1971] ?
(A) 95

###

# TEST_METHOD_NOTES: Volume of distribution at steady state in cynomolgus monkey at 1 mg/kg, iv by LC-MS/MS analysis
# Format: ADME, organism-based, Macaca fascicularis
# CONDITION_SET: in vivo, read-out: Vdss
QUANTITY: Vd (L/kg)
Reply with just the number (in L/kg).

(Q) Entry under review: Cn1nccc1[C@H]1CCCC[C@@H]1Oc1cc(F)c(S(=O)(=O)Nc2ccncn2)cc1Cl . Reported Vd?
(A) 0.15

###

# TEST_METHOD_NOTES: Toxicity in Crl:CD1(ICR) mouse assessed as effect on motor coordination by measuring NOEL administered as single dose measured after 0.5 to 2 hrs by rotarod test
# CONDITION_SET: in vivo
QUANTITY: NOAEL (mg/kg)
Lab book: enter the figure in mg/kg, no units written.

(Q) What value of measured NOAEL is listed for Cn1nccc1[C@H]1CCCC[C@@H]1Oc1cc(F)c(S(=O)(=O)Nc2ccncn2)cc1Cl ?
(A) 1000

###

# TEST_METHOD_NOTES: AUC (infinity) in ddy mouse at 1 mg/kg, iv or po by LC-MS/MS analysis
# Type: ADME, organism-based
# CONDITION_SET: in vivo
QUANTITY: AUC(0-inf) (µM·h)
Numeric answer only, unit µM·h assumed.

(Q) Could you tell me which AUC(0-inf) is on file for Cn1nccc1[C@H]1CCCC[C@@H]1Oc1cc(F)c(S(=O)(=O)Nc2ccncn2)cc1Cl [DS-1971] ?
(A) 0.0689

Hello, the source for this data is ChEMBL document CHEMBL4622872, in case you need it.
